experiment: BET inhibitor-based combinations targeting novel dependencies in MECOM-rearranged (r) AML: SET-2 cell line (AID 2202231); conditions: SET-2 AML cells viability, CellTiter-Glo luminescence, 48 h; further: potency means the concentration at half of the fitted maximal effect; nearly all actives have a fitted effect of over 35% in size
Inconclusive results are not listed. Active and inactive are the calls of the source. The call rests on the fitted dose curve; in most records, active means well fitted inhibition curve with a large enough effect; inconclusive means small, poorly fitted or top-dose-only effect; inactive means no such curve, though single readings can be large or run the other way.
reported property: Potency

Here are 6 molecules together with their reported answers.
• COC(C)(C)CCn1nc(Nc2c(C)cccc2C)c2cnc(Nc3ccc(OCCN4CCCC4)c(F)c3)nc21 = 18.6 µM (active)
• O=C1NC(=O)[C@@H](c2cn3c4c(cccc24)CCC3)[C@@H]1c1c[nH]c2ccccc12 = 1.32 µM (active)
• CN1CCN(c2cccc(Nc3nc4c(-c5ccc(S(C)(=O)=O)cc5)cccn4n3)c2)CC1 = 4.17 µM (active)
• COc1ccc([C@@H](O)[C@@H](C)Oc2ccc([C@H]3O[C@H](c4ccc(O[C@H](C)[C@H](O)c5ccc(OC)c(OC)c5)c(OC)c4)[C@H](C)[C@H]3C)cc2OC)cc1OC = 13.2 µM (active)
• Cn1cc(-c2cnc3ccc4ccc(CS(=O)(=O)NCc5ccccn5)cc4c(=O)c3c2)cn1 = 16.6 µM (active)
• COc1nnc2ccc(N3CCC(c4ccc(OCCN5CCN(C)C(=O)[C@H]5C)cc4)CC3)nn12 = 0.148 µM (active)

**Query** Answer with the recorded Potency for the molecule listed here: `CCCCCCCOc1ccc(CCC(N)(CO)CO)cc1C(F)(F)F`
**Result** 18.6 µM (active)

**Query** Return value of Potency for input `CC(=O)NCC(=O)N1[C@@H]2CC[C@H]1c1ccc(Nc3ncc(C(F)(F)F)c(NC4CCC4)n3)cc12` , no commentary.
**Result** 4.17 µM (active)

**Query** Determine from records and report Potency for `CC(=O)c1ccc2c(c1)c1cc(C(C)=O)ccc1n2CCNC(C)C`
**Result** 1.18 µM (active)

**Query** Supply reported Potency belonging to this molecule: `COc1ccc(OC)c(-c2nnc3ccc(-c4ccc(OC)c(O[C@@H]5CCOC5)c4)nn23)c1`
**Result** 8.33 µM (active)

**Query** For the molecule `O=C(NO)c1ccc(C2=Nc3ccccc3Oc3ccccc32)cc1` , give its reported Potency.
**Result** 2.95 µM (active)
